Target: T1, human c-Met antigen (Sino Biological) (human, UniProt P08581 25-932)
T1 construct: Bought antigen used as the analyte in SPR; also called hepatocyte growth factor receptor; HGFR
T1 sequence (P08581 25-932 limits assumed): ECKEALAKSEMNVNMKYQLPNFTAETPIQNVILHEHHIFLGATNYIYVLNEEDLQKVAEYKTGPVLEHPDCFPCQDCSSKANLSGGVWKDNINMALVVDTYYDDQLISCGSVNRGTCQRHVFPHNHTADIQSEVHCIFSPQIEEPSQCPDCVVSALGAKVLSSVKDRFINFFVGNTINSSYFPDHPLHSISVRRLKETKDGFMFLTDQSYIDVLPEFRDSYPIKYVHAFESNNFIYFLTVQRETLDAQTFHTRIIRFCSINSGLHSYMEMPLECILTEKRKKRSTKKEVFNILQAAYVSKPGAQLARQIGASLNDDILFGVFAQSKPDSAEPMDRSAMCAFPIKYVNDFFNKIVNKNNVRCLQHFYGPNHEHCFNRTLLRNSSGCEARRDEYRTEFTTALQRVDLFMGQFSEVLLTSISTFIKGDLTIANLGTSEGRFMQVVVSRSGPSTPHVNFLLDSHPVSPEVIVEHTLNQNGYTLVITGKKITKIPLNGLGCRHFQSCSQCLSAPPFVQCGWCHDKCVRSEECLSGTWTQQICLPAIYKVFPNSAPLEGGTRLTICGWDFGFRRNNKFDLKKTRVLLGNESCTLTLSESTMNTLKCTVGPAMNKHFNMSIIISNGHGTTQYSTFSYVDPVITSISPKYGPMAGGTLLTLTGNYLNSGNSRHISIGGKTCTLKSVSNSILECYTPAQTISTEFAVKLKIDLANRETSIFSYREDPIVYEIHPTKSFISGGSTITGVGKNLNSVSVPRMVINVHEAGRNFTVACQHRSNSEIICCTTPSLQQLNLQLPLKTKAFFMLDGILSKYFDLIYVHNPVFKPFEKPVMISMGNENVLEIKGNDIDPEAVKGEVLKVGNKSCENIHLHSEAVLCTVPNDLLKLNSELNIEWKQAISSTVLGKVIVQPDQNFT
Test: SPR (BIACORE T200), antibody captured on protein A CM5 chip, human c-Met as analyte
Each entry below lists one item and its recorded Relative KD to VH0/Vk0 value.
Output: the number by itself.

1) VH4/Vk2 (antibody, V domains shown, CDR-grafted variant of the IgG1-based anti-cMet antibody 1E4; also called anti-cMet candidate antibody VH4/Vk2) VH: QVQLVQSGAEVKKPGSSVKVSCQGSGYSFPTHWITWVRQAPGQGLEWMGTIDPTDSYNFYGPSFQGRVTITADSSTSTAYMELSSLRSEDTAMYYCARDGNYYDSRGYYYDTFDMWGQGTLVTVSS VL: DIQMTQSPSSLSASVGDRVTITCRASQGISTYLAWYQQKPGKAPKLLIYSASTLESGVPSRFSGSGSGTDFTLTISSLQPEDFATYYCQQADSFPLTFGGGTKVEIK    0.81
2) VH0/Vk0 (antibody, V domains shown, Derived from the IgG1-based 1E4 by a K to R change in the CH1 domain (G1m(3) allotype) and an S to T change in the light chain constant region (Km3 allotype); also called VMDO2 VH0/Vk0) VH: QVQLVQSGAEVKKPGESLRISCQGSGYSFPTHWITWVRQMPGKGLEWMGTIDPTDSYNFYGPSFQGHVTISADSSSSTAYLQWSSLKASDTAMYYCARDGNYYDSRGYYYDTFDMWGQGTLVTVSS VL: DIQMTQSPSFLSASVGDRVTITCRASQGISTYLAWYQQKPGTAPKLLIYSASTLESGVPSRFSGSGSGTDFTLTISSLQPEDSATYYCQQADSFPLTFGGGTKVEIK    1
3) VH4/Vk0 (antibody, V domains shown, CDR-grafted variant of the IgG1-based anti-cMet antibody 1E4; also called anti-cMet candidate antibody VH4/Vk0) VH: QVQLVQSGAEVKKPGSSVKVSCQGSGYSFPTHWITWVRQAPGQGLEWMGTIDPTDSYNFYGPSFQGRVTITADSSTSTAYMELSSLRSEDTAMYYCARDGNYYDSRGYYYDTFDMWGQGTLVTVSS VL: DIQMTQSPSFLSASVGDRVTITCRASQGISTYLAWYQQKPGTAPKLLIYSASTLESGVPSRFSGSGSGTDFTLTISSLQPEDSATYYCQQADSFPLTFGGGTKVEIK    0.76
4) VH5/Vk2 (antibody, V domains shown, CDR-grafted variant of the IgG1-based anti-cMet antibody 1E4; also called anti-cMet candidate antibody VH5/Vk2) VH: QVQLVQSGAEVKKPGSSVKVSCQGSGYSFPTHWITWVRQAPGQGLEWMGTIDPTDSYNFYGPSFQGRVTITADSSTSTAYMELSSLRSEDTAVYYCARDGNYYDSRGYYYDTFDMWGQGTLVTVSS VL: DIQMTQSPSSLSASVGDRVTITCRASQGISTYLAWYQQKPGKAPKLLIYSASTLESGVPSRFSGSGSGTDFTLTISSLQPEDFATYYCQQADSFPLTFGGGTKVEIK    0.81
5) VH0/Vk2 (antibody, V domains shown, also called anti-cMet candidate antibody VH0/Vk2) VH: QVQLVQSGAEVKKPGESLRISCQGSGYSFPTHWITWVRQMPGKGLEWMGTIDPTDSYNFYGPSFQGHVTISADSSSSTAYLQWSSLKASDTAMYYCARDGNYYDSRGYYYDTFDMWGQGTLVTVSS VL: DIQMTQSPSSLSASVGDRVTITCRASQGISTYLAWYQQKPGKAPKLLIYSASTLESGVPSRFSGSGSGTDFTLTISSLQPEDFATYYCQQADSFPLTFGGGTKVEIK    0.98

Below: the item to evaluate.
Notebook: VH6/Vk2 (antibody, V domains shown, CDR-grafted variant of the IgG1-based anti-cMet antibody 1E4; also called anti-cMet candidate antibody VH6/Vk2) VH: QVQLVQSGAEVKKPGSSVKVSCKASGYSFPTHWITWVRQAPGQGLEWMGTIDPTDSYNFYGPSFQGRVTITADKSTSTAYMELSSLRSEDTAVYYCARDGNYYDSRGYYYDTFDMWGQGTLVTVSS VL: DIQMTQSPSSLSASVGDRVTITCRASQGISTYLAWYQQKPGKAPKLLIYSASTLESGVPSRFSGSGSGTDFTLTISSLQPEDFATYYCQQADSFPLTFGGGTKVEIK , Relative KD to VH0/Vk0 read as 0.85
